Assign pEC50 to each entry below.
Molecular target: T1, human NKG2D expressed on cells (human, UniProt P26718 1-216)
T1 construct: the cell type is named under assay; also called NKG2D on NK92 cells; HEK293T human NKG2D
T1 chain: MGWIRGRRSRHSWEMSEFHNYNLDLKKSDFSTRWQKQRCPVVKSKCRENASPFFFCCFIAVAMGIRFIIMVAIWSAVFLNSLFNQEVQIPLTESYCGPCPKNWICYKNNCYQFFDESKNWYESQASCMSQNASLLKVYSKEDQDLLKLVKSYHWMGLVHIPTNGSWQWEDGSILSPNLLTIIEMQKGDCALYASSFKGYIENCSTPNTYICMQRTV
Assay: flow cytometry; expanded human γδ T cells
The quantity pEC50 is defined as the negative base-10 logarithm of the molar concentration.

Req: Which pEC50 value belongs to anti-NKG2D antibody clone 296 (antibody, V domains shown, From transgenic rabbits) VH: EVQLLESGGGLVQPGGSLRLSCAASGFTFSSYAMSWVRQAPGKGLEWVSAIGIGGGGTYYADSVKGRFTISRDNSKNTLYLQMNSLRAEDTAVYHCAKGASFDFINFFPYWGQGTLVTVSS VL: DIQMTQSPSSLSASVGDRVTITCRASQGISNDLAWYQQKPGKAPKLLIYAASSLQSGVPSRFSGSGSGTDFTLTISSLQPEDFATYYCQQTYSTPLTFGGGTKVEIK ?
Resp: 8.88

Req: Would you mind telling me what pEC50 value was observed for anti-NKG2D antibody clone 320 (antibody, V domains shown, From transgenic rabbits; also called 320 IgG) VH: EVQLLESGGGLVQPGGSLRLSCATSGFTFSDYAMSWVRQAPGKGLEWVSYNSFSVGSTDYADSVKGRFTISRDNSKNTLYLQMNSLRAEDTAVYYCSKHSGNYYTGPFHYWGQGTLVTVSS VL: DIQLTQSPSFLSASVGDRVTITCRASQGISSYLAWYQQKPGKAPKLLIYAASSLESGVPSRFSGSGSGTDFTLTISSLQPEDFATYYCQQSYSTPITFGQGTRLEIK ?
Resp: 8.42

These entries and their values trace back to patent US20240067734A1.
